Tested on: B16-F10
Assay: Growth inhibition of mouse B16F10 cells after 72 hrs by MTT assay
Format: functional, cell-based

sample.smiles	growth inhibition (GI)
CC1(C)CC[C@]2(C(=O)NCCCCCCNC(=O)[C@]34CCC(C)(C)C[C@H]3C3=CC[C@@H]5[C@@]6(C)CC[C@H](O)C(C)(C)[C@@H]6CC[C@@]5(C)[C@]3(C)CC4)CC[C@]3(C)C(=CC[C@@H]4[C@@]5(C)CC[C@H](O)C(C)(C)[C@@H]5CC[C@]43C)[C@@H]2C1	Dose-dependent effect
CC1(C)CC[C@]2(C(=O)NCCCN)CC[C@]3(C)C(=CC[C@@H]4[C@@]5(C)C[C@@H](O)[C@H](O)C(C)(C)[C@@H]5CC[C@]43C)[C@@H]2C1	Dose-dependent effect
COCCOCCOCC(=O)NCCCCCCCCCCNC(=O)[C@]12CCC(C)(C)C[C@H]1C1=CC[C@@H]3[C@@]4(C)C[C@@H](O)[C@H](O)C(C)(C)[C@@H]4CC[C@@]3(C)[C@]1(C)CC2	Dose-dependent effect

----------
Test system: B16-F10
Assay: Induction of apoptosis in mouse B16F10 cells assessed as early apoptotic cells at antiproliferative IC50 after 24 hrs by Annexin V-FITC/propidium iodide staining based flow cytometry (reference value: 0.05 +/- 0.7%)
Format: functional
measured.attribute: Activity (%)

sample.smiles	measured.result
COCCOCCOCC(=O)NCCCNC(=O)[C@]12CCC(C)(C)C[C@H]1C1=CC[C@@H]3[C@@]4(C)C[C@@H](O)[C@H](O)C(C)(C)[C@@H]4CC[C@@]3(C)[C@]1(C)CC2	7.85
CC1(C)CC[C@]2(C(=O)NCCCN)CC[C@]3(C)C(=CC[C@@H]4[C@@]5(C)C[C@@H](O)[C@H](O)C(C)(C)[C@@H]5CC[C@]43C)[C@@H]2C1	0.7
CC1(C)CC[C@]2(C(=O)NCCCN)CC[C@]3(C)C(=CC[C@@H]4[C@@]5(C)CC[C@H](O)C(C)(C)[C@@H]5CC[C@]43C)[C@@H]2C1	0.55
COCCOCCOCC(=O)NCCCNC(=O)[C@]12CCC(C)(C)C[C@H]1C1=CC[C@@H]3[C@@]4(C)CC[C@H](O)C(C)(C)[C@@H]4CC[C@@]3(C)[C@]1(C)CC2	6.4
COCCOCCOCC(=O)NCCCCCCCCCCNC(=O)[C@]12CCC(C)(C)C[C@H]1C1=CC[C@@H]3[C@@]4(C)C[C@@H](O)[C@H](O)C(C)(C)[C@@H]4CC[C@@]3(C)[C@]1(C)CC2	3.7

----------
Test system: B16-F10
Assay: Potency index, ratio of oleanolic acid IC50 to compound IC50 for growth inhibition of mouse B16F10 cells
Assay type: functional
Threshold-based label: Ratio IC50 under 10 gives Y, Ratio IC50 not under 10 gives N.

sample.smiles	qualitative.label
CC1(C)CC[C@]2(C(=O)NCCCCCCNC(=O)[C@]34CCC(C)(C)C[C@H]3C3=CC[C@@H]5[C@@]6(C)CC[C@H](O)C(C)(C)[C@@H]6CC[C@@]5(C)[C@]3(C)CC4)CC[C@]3(C)C(=CC[C@@H]4[C@@]5(C)CC[C@H](O)C(C)(C)[C@@H]5CC[C@]43C)[C@@H]2C1	Y
CC1(C)CC[C@]2(C(=O)NCCCN)CC[C@]3(C)C(=CC[C@@H]4[C@@]5(C)CC[C@H](O)C(C)(C)[C@@H]5CC[C@]43C)[C@@H]2C1	N
CC1(C)CC[C@]2(C(=O)NCCCCCCCCCCNC(=O)[C@]34CCC(C)(C)C[C@H]3C3=CC[C@@H]5[C@@]6(C)CC[C@H](O)C(C)(C)[C@@H]6CC[C@@]5(C)[C@]3(C)CC4)CC[C@]3(C)C(=CC[C@@H]4[C@@]5(C)CC[C@H](O)C(C)(C)[C@@H]5CC[C@]43C)[C@@H]2C1	Y
COCCOCCOCC(=O)NCCCCCCNC(=O)[C@]12CCC(C)(C)C[C@H]1C1=CC[C@@H]3[C@@]4(C)CC[C@H](O)C(C)(C)[C@@H]4CC[C@@]3(C)[C@]1(C)CC2	Y
COCCOCCOCC(=O)NCCCNC(=O)[C@]12CCC(C)(C)C[C@H]1C1=CC[C@@H]3[C@@]4(C)CC[C@H](O)C(C)(C)[C@@H]4CC[C@@]3(C)[C@]1(C)CC2	N
CC1(C)CC[C@]2(C(=O)NCCCCCCCCCCN)CC[C@]3(C)C(=CC[C@@H]4[C@@]5(C)CC[C@H](O)C(C)(C)[C@@H]5CC[C@]43C)[C@@H]2C1	N
CC1(C)CC[C@]2(C(=O)NCCCNC(=O)[C@]34CCC(C)(C)C[C@H]3C3=CC[C@@H]5[C@@]6(C)CC[C@H](O)C(C)(C)[C@@H]6CC[C@@]5(C)[C@]3(C)CC4)CC[C@]3(C)C(=CC[C@@H]4[C@@]5(C)CC[C@H](O)C(C)(C)[C@@H]5CC[C@]43C)[C@@H]2C1	Y
COCCOCCOCC(=O)NCCCCCCCCCCNC(=O)[C@]12CCC(C)(C)C[C@H]1C1=CC[C@@H]3[C@@]4(C)CC[C@H](O)C(C)(C)[C@@H]4CC[C@@]3(C)[C@]1(C)CC2	N
CC1(C)CC[C@]2(C(=O)NCCCCCCN)CC[C@]3(C)C(=CC[C@@H]4[C@@]5(C)CC[C@H](O)C(C)(C)[C@@H]5CC[C@]43C)[C@@H]2C1	N

----------
Below, each entry is listed with its recorded viability at 72 h.
Assay: Cytotoxicity against human pulmonary fibroblasts assessed as cell viability at antiproliferative IC50 of mouse B16F10 cells after 72 hrs by MTT assay relative to control
Type: cell-based
Settings: read-out: Activity

sample.smiles	viability at 72 h
COCCOCCOCC(=O)NCCCCCCNC(=O)[C@]12CCC(C)(C)C[C@H]1C1=CC[C@@H]3[C@@]4(C)C[C@@H](O)[C@H](O)C(C)(C)[C@@H]4CC[C@@]3(C)[C@]1(C)CC2	< 50%
CC1(C)CC[C@]2(C(=O)NCCCCCCCCCCN)CC[C@]3(C)C(=CC[C@@H]4[C@@]5(C)CC[C@H](O)C(C)(C)[C@@H]5CC[C@]43C)[C@@H]2C1	93.9%
COCCOCCOCC(=O)NCCCNC(=O)[C@]12CCC(C)(C)C[C@H]1C1=CC[C@@H]3[C@@]4(C)C[C@@H](O)[C@H](O)C(C)(C)[C@@H]4CC[C@@]3(C)[C@]1(C)CC2	74%
CC1(C)CC[C@]2(C(=O)NCCCCCCN)CC[C@]3(C)C(=CC[C@@H]4[C@@]5(C)CC[C@H](O)C(C)(C)[C@@H]5CC[C@]43C)[C@@H]2C1	< 50%
CC1(C)CC[C@]2(C(=O)NCCCCCCN)CC[C@]3(C)C(=CC[C@@H]4[C@@]5(C)C[C@@H](O)[C@H](O)C(C)(C)[C@@H]5CC[C@]43C)[C@@H]2C1	92.9%
COCCOCCOCC(=O)NCCCNC(=O)[C@]12CCC(C)(C)C[C@H]1C1=CC[C@@H]3[C@@]4(C)CC[C@H](O)C(C)(C)[C@@H]4CC[C@@]3(C)[C@]1(C)CC2	66%
CC1(C)CC[C@]2(C(=O)NCCCN)CC[C@]3(C)C(=CC[C@@H]4[C@@]5(C)CC[C@H](O)C(C)(C)[C@@H]5CC[C@]43C)[C@@H]2C1	91.9%

----------
Test: Cytotoxicity against rat IEC-18 cells assessed as cell viability at antiproliferative IC50 of human HT-29 cells after 72 hrs by MTT assay relative to control
Format: cell-based
Conditions: read-out: Activity

sample.smiles	unit.abbrev	reported.relation	viability at 72 h
COCCOCCOCC(=O)NCCCCCCNC(=O)[C@]12CCC(C)(C)C[C@H]1C1=CC[C@@H]3[C@@]4(C)C[C@@H](O)[C@H](O)C(C)(C)[C@@H]4CC[C@@]3(C)[C@]1(C)CC2	%	=	60.2
CC1(C)CC[C@]2(C(=O)NCCCCCCN)CC[C@]3(C)C(=CC[C@@H]4[C@@]5(C)CC[C@H](O)C(C)(C)[C@@H]5CC[C@]43C)[C@@H]2C1	%	<	50
CC1(C)CC[C@]2(C(=O)NCCCCCCCCCCN)CC[C@]3(C)C(=CC[C@@H]4[C@@]5(C)C[C@@H](O)[C@H](O)C(C)(C)[C@@H]5CC[C@]43C)[C@@H]2C1	%	=	51.5
COCCOCCOCC(=O)NCCCCCCCCCCNC(=O)[C@]12CCC(C)(C)C[C@H]1C1=CC[C@@H]3[C@@]4(C)C[C@@H](O)[C@H](O)C(C)(C)[C@@H]4CC[C@@]3(C)[C@]1(C)CC2	%	=	72.5
CC1(C)CC[C@]2(C(=O)NCCCN)CC[C@]3(C)C(=CC[C@@H]4[C@@]5(C)CC[C@H](O)C(C)(C)[C@@H]5CC[C@]43C)[C@@H]2C1	%	<	50

Data origin: ChEMBL document CHEMBL4196031
